- Tested on: MDA-MB-435
- assayName: NCI tumour cell line growth inhibition, 48 h
The source made the active and inactive calls. No stated cut-off is given here; in the data, active = GI50 up to about 1.1 µM and inactive = higher.
Pick one and only one: y (active), n (inactive)

Prompt: For `CCOC(=O)c1[nH]c(Br)c(-c2ccc(OC)c(OC)c2)c1Br` , which call appears in the assay record?
Response: y

Prompt: Just curious, what result did `O=c1[nH]nc(-c2ccccc2)n1/N=C/c1ccncc1` get here?
Response: n

Prompt: Kindly provide the recorded test outcome for the following molecule: COC(=O)c1ccc(CN2CCc3c([nH]c4ccccc34)C2CO)o1 (stereo not given)
Response: n

Prompt: Can you look up the reported call for N#C[BH2-][n+]1cn(C2CC(O)C(COP(=O)(O)OC3CC(n4c[n+]([BH2-]C#N)c5c(=O)[nH]c(N)nc54)OC3CO)O2)c2nc(N)[nH]c(=O)c21 (stereo not given) for me?
Response: n

Prompt: What did the test return for `O=C1c2ccccc2C(=O)N1n1c(Cc2ccc(Cl)cc2)n[nH]c1=O` ?
Response: n

Prompt: Could you check what this test reported for CCOC(=O)C(NCc1ccc2c(c1)OCO2)(NC(=O)c1ccccc1)C(F)(F)F (stereo not given) ?
Response: n

Prompt: Please share the test call associated with `COC(=O)CCCc1ccc2c(c1)CC1(C2)Cc2cc3c(cc2C1)CCCC3` .
Response: n

Prompt: Tell me the assay call for Fc1cc2nc3n(c2cc1F)C(c1c(Cl)cccc1Cl)SC3 (stereo not given) please.
Response: n

Prompt: Outcome logged for `N#CCOc1ccc(/C=C/C(=O)c2ccc(Cl)cc2)cc1` in this assay:
Response: n

Prompt: Field: outcome | Entry: `O=c1c2nc[nH]c2n(-c2ccccc2)c(=S)n1-c1ccccc1`
Response: n

// data source = ChEMBL document CHEMBL1201862
